# Target or test system: Peroxisome proliferator-activated receptor gamma (Homo sapiens, UniProt P37231)
# Sequence (P37231 whole entry): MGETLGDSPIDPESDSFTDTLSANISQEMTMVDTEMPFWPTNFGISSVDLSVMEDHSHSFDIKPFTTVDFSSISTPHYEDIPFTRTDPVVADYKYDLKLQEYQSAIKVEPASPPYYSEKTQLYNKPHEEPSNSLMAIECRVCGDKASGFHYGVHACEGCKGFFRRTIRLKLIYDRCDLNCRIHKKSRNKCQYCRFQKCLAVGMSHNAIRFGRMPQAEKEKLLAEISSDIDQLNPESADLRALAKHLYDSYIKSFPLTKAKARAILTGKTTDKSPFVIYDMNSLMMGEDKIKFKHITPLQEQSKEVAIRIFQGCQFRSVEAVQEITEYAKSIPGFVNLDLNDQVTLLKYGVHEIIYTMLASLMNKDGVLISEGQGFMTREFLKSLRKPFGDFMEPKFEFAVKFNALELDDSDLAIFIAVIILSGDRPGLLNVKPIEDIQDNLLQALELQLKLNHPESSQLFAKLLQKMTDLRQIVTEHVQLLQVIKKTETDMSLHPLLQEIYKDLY
Kindly state EC50 for each of the entries shown.
Field format: number, assumed nM, no unit text.

Provide one value: measured EC50 of COC1=C(OC)Cc2c(cc[n+]3c(CCC(=O)O)c4cc(OC)c(OC)cc4cc23)C1 220000

Provide one value: measured EC50 of Cc1ccc(S(=O)(=O)Oc2ccc(N(CC(=O)O)S(=O)(=O)c3ccc(C)cc3)cc2)cc1 15.3

Provide one value: measured EC50 of COc1ccc(-c2nc(SCC(=O)O)n(-c3ccccn3)c2-c2ccc(OC)cc2)cc1 224
